Test system: K24384-001-R-PDC complex spheroids, viability
Assay: Anticancer human tumor K24384-001-R-PDC patient-derived pancreatic adenocarcinoma cell line growth inhibition [GQUAD]
Settings: curve of first compound; second compound 0.1 µM
Text: DNA G-quadruplex Stabilizer Agents in Combinations in Complex Spheroids A high-throughput screen of multi-cell type tumor spheroids was designed to identify active combinations of DNA G-quadruplex stabilizer agents and targeted small molecules. […] Compounds. […] If the clinical Cmax for an agent had not been determined, the highest concentration tested was 10 microM. […]
Listed molecules paired with reported IC50
Hi! Could you send only the number? It should be in nM, unit omitted.

Worked examples, 2 molecules total:
1) CC1COCCN1c1cc(C2(S(C)(=N)=O)CC2)nc(-c2ccnc3[nH]ccc23)n1 (stereo unspecified) + Cc1[nH]c2ccc(F)cc2c1-c1nc2c3cccnc3c3ncccc3c2[nH]1; 1710
2) CC1COCCN1c1cc(C2(S(C)(=N)=O)CC2)nc(-c2ccnc3[nH]ccc23)n1 (stereo unspecified) + CN(C)c1ccc(Nc2c3ccc(NC(=O)CCN4CCCC4)cc3nc3cc(NC(=O)CCN4CCCC4)ccc23)cc1; 1600

Ask: Can you look up the measured IC50 of CCc1c2c(nc3ccc(O)cc13)-c1cc3c(c(=O)n1C2)COC(=O)[C@]3(O)CC + Cc1[nH]c2ccc(F)cc2c1-c1nc2c3cccnc3c3ncccc3c2[nH]1 for me?
Result: 11.4

Ask: Can you look up the measured IC50 of C=CCn1c(=O)c2cnc(Nc3ccc(N4CCN(C)CC4)cc3)nc2n1-c1cccc(C(C)(C)O)n1 + Cc1cnc(CNC(=O)c2c(=O)c3ccc(N4CCCN(C)CC4)nc3n3c2sc2ccccc23)cn1 for me?
Result: 350

###

Listed compounds paired with reported viability, T/C
System: K24384-001-R-PDC complex spheroids, viability
Assay: Anticancer human tumor K24384-001-R-PDC cell line growth inhibition [GQUAD];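 note: spheroids exposed to compounds for seven days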
Details: second compound 0.0316 µM; first compound 0.1 µM; stronger effect = lower value
From the text: DNA G-quadruplex Stabilizer Agents in Combinations in Complex Spheroids A high-throughput screen of multi-cell type tumor spheroids was designed to identify active combinations of DNA G-quadruplex stabilizer agents and targeted small molecules. […] Compounds. […] If the clinical Cmax for an agent had not been determined, the highest concentration tested was 10 microM. […]
Hi! Could you send only the number? It should be in %, unit omitted.

Worked examples, 2 compounds total:
1) C=CCn1c(=O)c2cnc(Nc3ccc(N4CCN(C)CC4)cc3)nc2n1-c1cccc(C(C)(C)O)n1 + CN(C)c1ccc(Nc2c3ccc(NC(=O)CCN4CCCC4)cc3nc3cc(NC(=O)CCN4CCCC4)ccc23)cc1; 81
2) CC1COCCN1c1cc(-c2ccnn2C)c2ccnc(-c3ccn[nH]3)c2n1 (stereo not given) + Cc1cnc(CNC(=O)c2c(=O)c3ccc(N4CCCN(C)CC4)nc3n3c2sc2ccccc23)cn1; 37.8

Ask: Can you look up the measured viability, T/C of CC1COCCN1c1cc(C2(S(C)(=N)=O)CC2)nc(-c2ccnc3[nH]ccc23)n1 (stereo not given) + Cc1[nH]c2ccc(F)cc2c1-c1nc2c3cccnc3c3ncccc3c2[nH]1 for me?
Result: 94.6

Ask: Can you look up the measured viability, T/C of CCCS(=O)(=O)Nc1ccc(F)c(C(=O)c2c[nH]c3ncc(-c4ccc(Cl)cc4)cc23)c1F + Cc1cnc(CNC(=O)c2c(=O)c3ccc(N4CCCN(C)CC4)nc3n3c2sc2ccccc23)cn1 for me?
Result: 84.4

Ask: Can you look up the measured viability, T/C of C=CC(=O)N1CCN(c2nc(=O)n(-c3c(C)ccnc3C(C)C)c3nc(-c4c(O)cccc4F)c(F)cc23)C(C)C1 (stereo not given) + Cc1cnc(CNC(=O)c2c(=O)c3ccc(N4CCCN(C)CC4)nc3n3c2sc2ccccc23)cn1 for me?
Result: 78.9

Ask: Can you look up the measured viability, T/C of O=c1[nH]cc(F)c(=O)[nH]1 + Cc1[nH]c2ccc(F)cc2c1-c1nc2c3cccnc3c3ncccc3c2[nH]1 for me?
Result: 77.9

Ask: Can you look up the measured viability, T/C of CC1COCCN1c1cc(C2(O)CC3CCC(C2)O3)c2cnn(-c3ccn[nH]3)c2n1 (stereo not given) + CN(C)c1ccc(Nc2c3ccc(NC(=O)CCN4CCCC4)cc3nc3cc(NC(=O)CCN4CCCC4)ccc23)cc1 for me?
Result: 52

Ask: Can you look up the measured viability, T/C of CC(C)n1c(=O)n(C)c2cnc3cc(F)c(-c4ccc(OCCCN5CCCCC5)nc4)cc3c21 + CN(C)c1ccc(Nc2c3ccc(NC(=O)CCN4CCCC4)cc3nc3cc(NC(=O)CCN4CCCC4)ccc23)cc1 for me?
Result: 82.6

Ask: Can you look up the measured viability, T/C of CC1COCCN1c1cc(-c2ccnn2C)c2ccnc(-c3ccn[nH]3)c2n1 (stereo not given) + Cc1[nH]c2ccc(F)cc2c1-c1nc2c3cccnc3c3ncccc3c2[nH]1 for me?
Result: 63.7

Ask: Can you look up the measured viability, T/C of CC(=O)O[C@H]1C(=O)[C@@]2(C)[C@H]([C@H](OC(=O)c3ccccc3)[C@]3(O)C[C@H](OC(=O)[C@H](O)[C@@H](NC(=O)c4ccccc4)c4ccccc4)C(C)=C1C3(C)C)[C@]1(OC(C)=O)CO[C@@H]1C[C@@H]2O + Cc1[nH]c2ccc(F)cc2c1-c1nc2c3cccnc3c3ncccc3c2[nH]1 for me?
Result: 25

###

Tested on: K24384-001-R-PDC complex spheroids, viability
Test: Anticancer human tumor K24384-001-R-PDC cell line growth inhibition [GQUAD];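 note: spheroids exposed to compounds for seven days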
Conditions: second compound 3.16 µM; first compound 0.0316 µM; stronger effect = lower value
metric: viability, T/C (%)
Hi! Could you send only the number? It should be in %, unit omitted.

Worked examples, 2 molecules total:
1. Cc1cccc(N(C)C(=O)C2C(O)CCN2c2nc(C)cc(C(F)(F)F)c2C#N)c1 (stereo not drawn) + CN(C)c1ccc(Nc2c3ccc(NC(=O)CCN4CCCC4)cc3nc3cc(NC(=O)CCN4CCCC4)ccc23)cc1; 93
2. O=c1[nH]cc(F)c(=O)[nH]1 + CN(C)c1ccc(Nc2c3ccc(NC(=O)CCN4CCCC4)cc3nc3cc(NC(=O)CCN4CCCC4)ccc23)cc1; 83.9

Ask: Can you look up the measured viability, T/C of C#Cc1c(F)ccc2cc(O)cc(-c3ncc4c(N5CC6CCC(C5)N6)nc(OCC56CCCN5CC(F)C6)nc4c3F)c12 (stereo not drawn) + Cc1cnc(CNC(=O)c2c(=O)c3ccc(N4CCCN(C)CC4)nc3n3c2sc2ccccc23)cn1 for me?
Result: 29

###

System: K24384-001-R-PDC complex spheroids, viability
Test: Anticancer human tumor K24384-001-R-PDC cell line growth inhibition [GQUAD];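 note: spheroids exposed to compounds for seven days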
Details: second compound 1 µM; first compound 0.1 µM; stronger effect = lower value
metric: viability, T/C (%)
Hi! Could you send only the number? It should be in %, unit omitted.

Worked examples, 2 compounds total:
1) COc1cc(C2c3cc4c(cc3C(OC3OC5COC(C)OC5C(O)C3O)C3COC(=O)C23)OCO4)cc(OC)c1O (stereo not drawn) + Cc1cnc(CNC(=O)c2c(=O)c3ccc(N4CCCN(C)CC4)nc3n3c2sc2ccccc23)cn1; 49.1
2) C=CC(=O)N1CCN(c2nc(=O)n(-c3c(C)ccnc3C(C)C)c3nc(-c4c(O)cccc4F)c(F)cc23)C(C)C1 (stereo not drawn) + CN(C)c1ccc(Nc2c3ccc(NC(=O)CCN4CCCC4)cc3nc3cc(NC(=O)CCN4CCCC4)ccc23)cc1; 129

# ---- query compound ----
Ask: Can you look up the measured viability, T/C of O=C(c1cc(Cc2n[nH]c(=O)c3ccccc23)ccc1F)N1CCN(C(=O)C2CC2)CC1 + Cc1cnc(CNC(=O)c2c(=O)c3ccc(N4CCCN(C)CC4)nc3n3c2sc2ccccc23)cn1 for me?
Result: 48.4

###

Listed molecules paired with reported viability, T/C
System: K24384-001-R-PDC complex spheroids, viability
Assay: Anticancer human tumor K24384-001-R-PDC cell line growth inhibition [GQUAD];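 note: spheroids exposed to compounds for seven days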
Conditions: second compound 10 µM; first compound 1 µM; stronger effect = lower value
From the text: DNA G-quadruplex Stabilizer Agents in Combinations in Complex Spheroids A high-throughput screen of multi-cell type tumor spheroids was designed to identify active combinations of DNA G-quadruplex stabilizer agents and targeted small molecules. […] Compounds. […] If the clinical Cmax for an agent had not been determined, the highest concentration tested was 10 microM. […]
Hi! Could you send only the number? It should be in %, unit omitted.

Worked examples, 2 molecules total:
1) Cc1cccc(N(C)C(=O)C2C(O)CCN2c2nc(C)cc(C(F)(F)F)c2C#N)c1 (stereo not drawn) + Cc1cnc(CNC(=O)c2c(=O)c3ccc(N4CCCN(C)CC4)nc3n3c2sc2ccccc23)cn1; 44.4
2) COc1ncnc(C2CC2)c1-c1ncc2cnn(Cc3ccc(-c4nc(C(F)(F)F)cn4C(C)C)cc3)c2n1 + CN(C)c1ccc(Nc2c3ccc(NC(=O)CCN4CCCC4)cc3nc3cc(NC(=O)CCN4CCCC4)ccc23)cc1; 88

# ---- query molecule ----
Ask: Tell me reported viability, T/C for CC(C)n1c(=O)n(C)c2cnc3cc(F)c(-c4ccc(OCCCN5CCCCC5)nc4)cc3c21 + Cc1[nH]c2ccc(F)cc2c1-c1nc2c3cccnc3c3ncccc3c2[nH]1 , tested with K24384-001-R-PDC complex spheroids, viability.
Result: 96.3
